The measured values listed here are drawn from the NIST ThermoML archive (doi:10.1021/acs.jced.8b00583).

surface tension liquid-gas values, listed per item
Details: 298.15 K; Liquid; Maximal bubble pressure
Answer format: numeric, mN/m implied, no suffix.

- MOLECULE: "CCC(=O)[O-].CCCC[NH3+] [butylammonium propanoate]"
  MEASUREMENT NAME: "surface tension liquid-gas"
  VAL: 27.8
- MOLECULE: "CCCC(=O)[O-].CCCC[NH3+] [n-butylammonium butanoate]"
  MEASUREMENT NAME: "surface tension liquid-gas"
  VAL: 25.4
- MOLECULE: "CC(=O)O.CCCCN [butylammonium acetate]"
  MEASUREMENT NAME: "surface tension liquid-gas"
  VAL: 31.1

Now for a further molecule.
## Task Dear colleague, I am looking for the recorded surface tension liquid-gas of the following molecule: CCCC[NH3+].O=C[O-] [butylammonium formate]
## Result 33.3

###

Settings: 293.15 K; 100 kPa; Liquid; Vibrating tube method
mass density listing for selected compounds.
The response must be a number in kg/m3 with no trailing unit.

Please review the following examples before continuing.
- COMPOUND: "CCCC[NH3+].O=C[O-] [butylammonium formate]"
  mass density (kg/m3): 976.96
- COMPOUND: "CC(=O)O.CCCCN [butylammonium acetate]"
  mass density (kg/m3): 959.02
- COMPOUND: "CCC(=O)[O-].CCCC[NH3+] [butylammonium propanoate]"
  mass density (kg/m3): 933.95

## Task Using the record for CCCC(=O)[O-].CCCC[NH3+] [n-butylammonium butanoate] , report its mass density.
## Result 907.81

###

Recorded Glass transition temperature for the following compounds
Settings: Glass; DSC
Please reply with the bare figure in °C and do not write the unit itself.

Below: 3 compounds and their reported Glass transition temperature.
- COMPOUND: "CCCC(=O)[O-].CCCC[NH3+] [n-butylammonium butanoate]"
  UOM: "°C"
  Glass transition temperature: -81.80
- COMPOUND: "CCCC[NH3+].O=C[O-] [butylammonium formate]"
  UOM: "°C"
  Glass transition temperature: -108.50
- COMPOUND: "CC(=O)O.CCCCN [butylammonium acetate]"
  UOM: "°C"
  Glass transition temperature: -98.90

## Task // query Glass transition temperature value for entry CCC(=O)[O-].CCCC[NH3+] [butylammonium propanoate]
## Result -89.40

###

Conditions: 328.15 K; 100 kPa; Liquid; Vibrating tube method
Listed next: entries and their corresponding mass density.
Answer with a number only, understood to be in kg/m3.

As a guide, the following entries are already answered.
- MOLECULE: "CCC(=O)[O-].CCCC[NH3+] [butylammonium propanoate]"
  mass density / kg/m3: 912.7
- MOLECULE: "CC(=O)O.CCCCN [butylammonium acetate]"
  mass density / kg/m3: 937.8

## Task GET /values?readout=mass density&item= CCCC(=O)[O-].CCCC[NH3+] [n-butylammonium butanoate]
## Result 887.56

## Task Continue with CCCC[NH3+].O=C[O-] [butylammonium formate]
## Result 954.95

###

Conditions: 298.15 K; 100 kPa; Liquid; Capillary tube (Ostwald / Ubbelohde) method
Numbers after ± are expanded uncertainties.
Overview of reported viscosity across a group of compounds:
Be sure to follow the number with its unit.

Previously resolved entries follow.
- COMPOUND: "CC(=O)O.CCCCN [butylammonium acetate]"
  VAL: "546.33 ± 58 mPa·s"
- COMPOUND: "CCCC(=O)[O-].CCCC[NH3+] [n-butylammonium butanoate]"
  VAL: "812.6 ± 89 mPa·s"
- COMPOUND: "CCCC[NH3+].O=C[O-] [butylammonium formate]"
  VAL: "120.82 ± 12 mPa·s"

Turning now to a further record.
## Task Please look up its viscosity: CCC(=O)[O-].CCCC[NH3+] [butylammonium propanoate]
## Result 669.24 ± 72 mPa·s
